- assaySummary: AUC (0 to 6 hrs) in wild type FVB mouse plasma at 10 mg/kg, po by LC-MS analysis
- Type: ADME, organism-based
- Design: time < 6 hr, dose 10 mg/kg, route oral
measuredAttribute: AUC(0-t) at 6 h (µM·h)

- COc1ccc(CN2CCN(c3ccc(-c4nc5ccccc5o4)cc3)CC2)cn1: 1.1
- c1cncc(CN2CCN(c3ccc(-c4nc5ccccc5s4)cc3)CC2)c1: 2.7
- Fc1ccc(CN2CCN(c3ccc(-c4nc5ccccc5o4)cc3)CC2)cn1: 1.2
- c1cncc(CN2CCN(c3ccc(-c4nc5ccccc5o4)cc3)CC2)c1: 4.2

---

- assaySummary: AUC (0 to 6 hrs) in wild type FVB mouse brain at 10 mg/kg, po by LC-MS analysis
- Format: ADME, organism-based
- Design: time < 6 hr, dose 10 mg/kg, route oral
- conditionLabel: FVB, brain
measuredAttribute: AUC(0-t) at 6 h

* COc1ccc(CN2CCN(c3ccc(-c4nc5ccccc5o4)cc3)CC2)cn1 | 3 µM·h
